Answer each item with its documented ΔTm at 10 µM.
- system-tested: ZmDRIK1-K217-S514 (Zea mays)
- Construct: kinase domain, K217-S514
- Sequence (C0P4K9 1-514): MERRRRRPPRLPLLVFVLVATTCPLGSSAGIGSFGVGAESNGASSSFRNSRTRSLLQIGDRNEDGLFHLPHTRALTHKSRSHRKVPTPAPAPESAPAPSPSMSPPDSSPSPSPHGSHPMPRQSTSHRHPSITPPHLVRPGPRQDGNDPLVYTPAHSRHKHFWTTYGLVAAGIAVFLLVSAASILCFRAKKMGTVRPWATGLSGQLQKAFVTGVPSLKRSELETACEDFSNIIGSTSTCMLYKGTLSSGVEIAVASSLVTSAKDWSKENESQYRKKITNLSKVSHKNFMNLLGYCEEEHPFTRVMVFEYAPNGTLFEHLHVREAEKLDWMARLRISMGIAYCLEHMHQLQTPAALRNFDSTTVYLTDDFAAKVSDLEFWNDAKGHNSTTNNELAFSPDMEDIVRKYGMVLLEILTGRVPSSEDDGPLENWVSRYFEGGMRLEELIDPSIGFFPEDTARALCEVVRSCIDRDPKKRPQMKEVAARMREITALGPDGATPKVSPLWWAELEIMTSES
- assay-procedure: biochemical
- condition-context: read-out: dTm B, sheet ZmDRIK1-K217-S514;; DSF, Boltzmann fit, 0.1% DMSO
Numbers only, in °C.

Some compounds with recorded ΔTm at 10 µM:
C=CC(=O)Nc1cccc(Oc2nc(Nc3ccc(N4CCN(C)CC4)cc3)ncc2Cl)c1; -0.0548
CNCc1ccc(-c2cc(-c3nc(-c4ccc(S(=O)(=O)C(C)C)cc4)cnc3N)on2)cc1; -0.454
OCCn1cc(-c2ccc3c(c2)CC/C3=N\O)c(-c2ccncc2)n1; -0.397
CNC(=O)c1ccc(C)c(-n2c(C)cc(OCc3ccc(F)cc3F)c(Br)c2=O)c1; -0.43
COc1ccc(Cl)c(Nc2nc3ccccc3nc2NS(=O)(=O)c2cccc(NC(=O)C(C)(C)N)c2)c1; 0.807

Would you be so kind as to report ΔTm at 10 µM for each listed record?
1. CN1CCC(c2c(O)cc(O)c3c(=O)cc(-c4ccccc4Cl)oc23)C1CO (centres unmarked)
2. Cc1c(CN2CCN(C(=O)[C@H](C)O)CC2)sc2c(N3CCOCC3)nc(-c3cnc(N)nc3)nc12 [GDC-0980 (RG7422)]
3. Nc1cc(C(F)(F)F)c(-c2cc(N3CCOCC3)nc(N3CCOCC3)n2)cn1
4. O=C(Nc1cccc(Nc2ncc(Br)c(NCCc3cnc[nH]3)n2)c1)N1CCCC1

-0.359
-0.304
-0.33
-0.277

Would you be so kind as to report ΔTm at 10 µM for each listed record?
1. Cc1ccc(NC(=O)c2cccc(N(C)C)c2)cc1NC(=O)c1ccc(O)cc1
2. Oc1ccc2ccccc2c1SSc1c(O)ccc2ccccc12
3. COc1ccc2c(Oc3ccc(NC(=O)c4c(C)n(CC(C)(C)O)n(-c5ccccc5)c4=O)nc3)ccnc2c1

1. -0.418
2. -15
3. -0.329

----------
- system-tested: ZmDRIK1-R187-P492 (Zea mays)
- Construct: kinase domain, R187-P492
- Sequence (C0P4K9 1-514): as above
- assay-procedure: biochemical
- condition-context: read-out: dTm B, DSF, Boltzmann fit, 0.1% DMSO
Answer each item with its documented ΔTm at 10 µM.
Give bare numbers, in °C.

Some compounds with recorded ΔTm at 10 µM:
Cc1ncc(-c2ccnc(Nc3ccc(S(C)(=O)=O)cc3)n2)n1C(C)C; -0.417
NC1(C(=O)N[C@@H](CCO)c2ccc(Cl)cc2)CCN(c2ncnc3[nH]ccc23)CC1; -0.504
COc1ccc(C(=O)Nc2sc3c(c2C(N)=O)CCCC3)cc1OC; -0.318
CNC(=O)c1ccc(C)c(-n2c(C)cc(OCc3ccc(F)cc3F)c(Br)c2=O)c1; -0.28
Cc1[nH]c(/C=C2\C(=O)Nc3ccccc32)c(C)c1CCC(=O)O [TSU-68 (SU6668)]; -0.199

Would you be so kind as to report ΔTm at 10 µM for each listed record?
1. O=c1c(O)c(-c2ccc(O)c(O)c2)oc2cc(O)cc(O)c12
2. Cc1cc2c(F)c(Oc3ncnn4cc(OC[C@@H](C)OC(=O)[C@H](C)N)c(C)c34)ccc2[nH]1 [Brivanib Alaninate (BMS-582664)]
3. COc1ncc(-c2ccc3nccc(-c4ccnnc4)c3c2)cc1NS(=O)(=O)c1ccc(F)cc1F
4. Cc1cc(C(=O)NOCCO)c(Nc2ccc(I)cc2F)n(C)c1=O

[-0.357, -0.504, -0.322, -0.162]
